- system: ER-alpha (WT) (Homo sapiens, UniProt P03372)
- Construct: endogenous in cells
- Sequence (P03372 whole entry): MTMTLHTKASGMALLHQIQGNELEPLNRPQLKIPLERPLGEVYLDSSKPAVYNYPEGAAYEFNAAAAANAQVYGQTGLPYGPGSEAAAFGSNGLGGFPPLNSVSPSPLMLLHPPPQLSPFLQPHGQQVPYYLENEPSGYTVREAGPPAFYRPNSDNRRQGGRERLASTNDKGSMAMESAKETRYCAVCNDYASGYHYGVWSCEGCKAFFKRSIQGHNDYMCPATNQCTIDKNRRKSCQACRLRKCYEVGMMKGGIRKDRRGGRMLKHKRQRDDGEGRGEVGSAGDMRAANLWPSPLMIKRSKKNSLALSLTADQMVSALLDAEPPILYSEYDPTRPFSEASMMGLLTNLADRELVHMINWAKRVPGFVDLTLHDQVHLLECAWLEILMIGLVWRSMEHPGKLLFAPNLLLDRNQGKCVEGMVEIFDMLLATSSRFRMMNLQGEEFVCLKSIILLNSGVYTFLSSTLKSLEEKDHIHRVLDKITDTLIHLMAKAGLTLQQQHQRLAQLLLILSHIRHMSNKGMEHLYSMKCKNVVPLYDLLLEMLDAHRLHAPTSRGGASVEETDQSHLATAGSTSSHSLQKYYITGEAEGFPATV
- protocol-summary: Breast Cancer Cell ERa High Content Fluorescence Imaging Degradation Assay (MCF7 HCS)
- experimental-setup: MCF7 breast cancer cells, 4 hours incubation; inflexion point of curve
pEC50: −log10 of the molar value.
readout-kind: pEC50

Illustrative cases are given below, each with its answer.
• C[C@@H]1Cc2cc(O)ccc2[C@@H](c2ccc(OCCN3CC(CF)C3)cc2)N1CC(F)(F)CO = 10.18
• CC(C)(F)CN1CCc2cc(O)ccc2[C@@]1(c1ccc(OCCN2CC(CF)C2)cc1)C(F)F (single isomer, unassigned) = 7.66
• C[C@@H]1CCN(CCOc2ccc([C@]3(C)c4ccc(O)cc4CCN3CC(C)(C)F)cc2)C1 = 9.62
• C[C@H]1Cc2cc(C(=O)O)ccc2[C@H](c2ccc(OCCN3CC(CF)C3)cc2)N1CC(F)(F)F (single isomer, unassigned) = 7.96
• C[C@@H]1Cc2ccccc2[C@@H](c2ccc(OCCN3CC(CF)C3)cc2)N1CC(F)(F)F (single isomer, unassigned) = 9.07
• CC1(C)Cc2cc(O)ccc2[C@H](c2ccc(OCCN3CC(CF)C3)cc2)N1CC(F)(F)F = 9.32
• CC(C)(F)CN1CCc2cc(O)ccc2[C@@H]1c1ccc(OCCN2CC(CF)C2)cc1 = 9.84
• OCc1ccc2c(c1)CCN(CC(F)(F)F)C2c1ccc(OCCN2CC(CF)C2)cc1 (single isomer, unassigned) = 7.00

I. C[C@@H]1Cc2cc(O)ccc2[C@@H](c2ccc(OCCN3CC(CF)C3)cc2)N1CC(F)(F)F (single isomer, unassigned)
II. C[C@H](CN1CCc2cc(O)ccc2[C@@]1(C)c1ccc(OCCN2CC(CF)C2)cc1)C(=O)O
query: In the pair I and II , the larger recorded pEC50 belongs to which? Mark your answer with the label of the selected entry.
result: I
